assayed system: MT2 receptor (Homo sapiens, UniProt P49286)
Sequence (P49286 whole entry): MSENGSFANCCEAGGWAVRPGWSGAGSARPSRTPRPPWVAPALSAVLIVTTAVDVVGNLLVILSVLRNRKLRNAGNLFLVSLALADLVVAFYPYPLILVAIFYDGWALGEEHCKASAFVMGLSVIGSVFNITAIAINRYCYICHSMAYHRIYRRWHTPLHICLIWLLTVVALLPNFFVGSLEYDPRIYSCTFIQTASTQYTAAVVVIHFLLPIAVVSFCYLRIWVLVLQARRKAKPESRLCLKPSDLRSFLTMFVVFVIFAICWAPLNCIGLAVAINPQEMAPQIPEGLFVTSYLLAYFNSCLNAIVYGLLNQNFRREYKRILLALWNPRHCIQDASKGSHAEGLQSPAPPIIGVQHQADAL
method notes: ERK phosphorylation assay, MT2
Type: cell-based
Design: expressed in transfected cells
condition parameters: HEK293 cells; isoquinolone 1 μM or 2-iodomelatonin 100 nM, 5 min; against unstimulated control cells
parameter measured: ERK Phosphorylation MT2 Fold Stim. (Fold)
Express the result in Fold but write the number alone.

COc1cc(COc2cc3ccn(C)c(=O)c3cc2OC)cc(OC)c1 [IS042] : 5.59
COc1cc(COc2cc3c(=O)n(C)ccc3cc2OC)cc(OC)c1 [IS523] : 2.07
Cn1ccc2cc(OC(=O)c3ccccc3)c(OC(=O)c3ccccc3)cc2c1=O [IS039] : 1.98
COc1cccc(COc2cc3ccn(C)c(=O)c3cc2OC)c1 [IS044] : 3.50

Form field ERK Phosphorylation MT2 Fold Stim., entry COc1cccc(COc2cc3c(=O)n(C)ccc3cc2OC)c1 [IS521] : 3.01
